test-target: T1, recombinant human NRP-1 (human, UniProt O14786 22-856, limits assumed)
T1 construct: also called biotinylated human NRP-1
T1 sequence (O14786 22-856 V179A limits assumed): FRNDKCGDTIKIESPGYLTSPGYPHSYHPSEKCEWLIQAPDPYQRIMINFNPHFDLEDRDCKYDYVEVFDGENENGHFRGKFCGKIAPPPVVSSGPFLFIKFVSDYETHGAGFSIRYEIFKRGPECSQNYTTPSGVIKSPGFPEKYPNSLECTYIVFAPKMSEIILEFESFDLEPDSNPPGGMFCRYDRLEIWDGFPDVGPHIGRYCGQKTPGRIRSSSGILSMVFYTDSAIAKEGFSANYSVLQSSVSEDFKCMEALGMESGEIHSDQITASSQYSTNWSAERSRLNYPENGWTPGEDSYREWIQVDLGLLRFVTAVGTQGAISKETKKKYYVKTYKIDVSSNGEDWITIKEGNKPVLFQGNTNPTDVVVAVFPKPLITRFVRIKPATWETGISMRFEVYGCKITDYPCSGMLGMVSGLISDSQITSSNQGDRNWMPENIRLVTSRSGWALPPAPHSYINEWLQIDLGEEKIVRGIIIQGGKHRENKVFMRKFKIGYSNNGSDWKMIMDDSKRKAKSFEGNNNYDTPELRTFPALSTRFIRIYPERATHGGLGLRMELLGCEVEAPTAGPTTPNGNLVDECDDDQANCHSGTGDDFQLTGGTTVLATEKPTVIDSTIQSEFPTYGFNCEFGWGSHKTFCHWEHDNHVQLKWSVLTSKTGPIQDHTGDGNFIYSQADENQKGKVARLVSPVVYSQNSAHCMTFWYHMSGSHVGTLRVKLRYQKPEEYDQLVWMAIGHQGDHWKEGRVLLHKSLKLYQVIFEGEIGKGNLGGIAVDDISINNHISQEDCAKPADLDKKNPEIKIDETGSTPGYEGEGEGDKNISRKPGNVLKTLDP
experiment: blocking ELISA: SEMA3A coated, biotinylated human NRP-1 preincubated with IgG1 antibody; competitor SEMA3A
Please respond with reported IC50 for every item in the list.
Answers are plain numbers, in nM.

Reference set (3 entries):
| binder | assay-result |
| --- | --- |
| MAB13 (antibody, V domains shown) VH: QVQLQQWGAGLLKPSETLSLTCAVYGGSFRGYYWEWIRQPPGKGLEWIGEISHSGSTNYNPSLKSRVTISVDTSKNQFSLKLSSVTAADTAVYYCARARPYREPYGMDVWGQGTTVTVSS VL: DIQLTQSPSSVSASVGDRVTITCRASQDISSWLAWYQQKPGKAPKLLIYAASSLQSGVPSRFSGSGSGTDFTLTISSLQPEDFATYYCQQELAFPRTFGGGTKVEIK | 3.4 |
| MAB7 (antibody, V domains shown) VH: EVQLVESGGGLVQPGGSLRLSCAASGFTFSSYWMEWVRQAPGKGLEWVARIKRDGSEKYYVDSVKGRFTISRDNAKNSLYLQMNSLRAEDTAVYYCARDQGYKTPTDFDLWGRGTLVTVSS VL: DIQMTQSPSSLSASVGDRVTITCQASQDITNYLNWYQQKPGKAPKLLIYDASNLETGVPSRFSGSGSGTDFTFTISSLQPEDIATYYCQQSDVLPITFGGGTKVEIK | 1.7 |
| MAB12 (antibody, V domains shown) VH: EVQLLESGGGLVQPGGSLRLSCAASGFTFSSVAMVWVRQAPGKGLEWVSAISGSGGATYYADSVEGRFTISRDNSKNTLYLQMNSLRAEDTAVYYCAKDPGYDSSRYYYSNYGMDVWGQGTTVTVSS VL: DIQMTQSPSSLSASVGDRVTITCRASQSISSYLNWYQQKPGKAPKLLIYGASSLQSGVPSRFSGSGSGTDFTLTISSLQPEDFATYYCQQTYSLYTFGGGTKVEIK | 0.8 |

Parameters: items (list). Returns: IC50 for each item.
1. MAB14 (antibody, V domains shown) VH: QVQLQQWGAGLLKPSETLSLTCAVYGGSFRGYYWEWSRQPPGKGLEWIGEISHSGSTNYNPSLKSRVTISVDTSKNQFSLKLSPVTAADTAVYYCARARPYREPYGMDVWGQGTTVTVSS VL: DIQLTQSPSSVSASVGDRVTITCRASQDISSWLAWYQQKPGKAPKLLIYAASSLQSGVPSRFSGSGSGTDFTLTISSLQPEDFATYYCQQELAFPRTFGGGTKVEIK
2. MAB8 (antibody, V domains shown) VH: EVQLLESGGGLVQPGGSLRLSCAASGFTFASYAMVWVRQAPGKGLEWVSIISGSGGSTYYADSVKGRFTISRDNSKNTLYLQMNSLRAEDTAVYYCAKDPGYDSSRYYYSNYGMDVWGQGTTVTVSS VL: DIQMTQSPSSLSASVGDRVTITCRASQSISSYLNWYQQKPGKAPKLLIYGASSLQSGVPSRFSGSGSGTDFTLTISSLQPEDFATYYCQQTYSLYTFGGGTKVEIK

Response line:
3.1
2
